Data origin, for the record: paper PMC5147771

tested on: S. cerevisiae deletion strains; test: Single strain growth inhibition of deletion strains (turbidity OD600); format: cell-based; settings: Saccharomyces cerevisiae, 24 h, read-out: IC50, strain KES1/kes1
measured.parameter: pIC50
Answers are plain numbers, as −log10 of the molar value.

Name the reported pIC50 value associated with the molecule COC(=O)C1CC2c3ccc([N+](=O)[O-])c4c3C(CC2N(C)C1)CN4C(=O)OCC(Cl)(Cl)Cl (stereo not shown)
4.72

----------
tested on: C. neoformans ATCC 90113; experiment: C. neoformans growth inhibition (CLSI M27-A3 broth microdilution); type: cell-based; conditions: Cryptococcus neoformans, ATCC90113, 72 h, no visible fungal growth, 72 h, triplicate values printed singly; read-out: ATCC90113 MIC-0
I'd appreciate it if you could supply MIC values for the items below.

molecule | measured
C[C@@H]1[C@H](O)[C@@H](C)/C=C/C=C/C=C/C=C/C=C/C=C/C=C/[C@H](O[C@@H]2O[C@H](C)[C@@H](O)[C@H](N)[C@@H]2O)C[C@@H]2O[C@](O)(C[C@@H](O)C[C@@H](O)[C@H](O)CC[C@@H](O)C[C@@H](O)CC(=O)O[C@H]1C)C[C@H](O)[C@H]2C(=O)O [Amphotericin B, reference compound] | 1.6 µg/mL
CN1C[C@H](C(=O)Nc2ccccc2)C[C@@H]2c3c(O)ccc4c3[C@H](C[C@H]21)CN4C(=O)OC(C)(C)C | > 50 µg/mL
COC(=O)C1CC2c3cc(O)cc4c3C(CC2N(C)C1)CN4C(C)=O (stereo not shown) | > 50 µg/mL
COC(=O)[C@@H]1C[C@@H]2c3cc(F)cc4c3[C@H](C[C@H]2N(C)C1)CN4C(C)=O | > 50 µg/mL
COC(=O)[C@@H]1C[C@@H]2c3cccc4c3[C@H](C[C@H]2N(C)C1)CN4C(=O)OCC(Cl)(Cl)Cl | 50 µg/mL
COC(=O)[C@@H]1C[C@@H]2c3c([N+](=O)[O-])ccc4c3[C@H](C[C@H]2N(C)C1)CN4C(=O)OCC(Cl)(Cl)Cl | > 50 µg/mL

Now examine the next entry.
Name the reported MIC value associated with the molecule "COC(=O)[C@@H]1C[C@@H]2c3cc([N+](=O)[O-])cc4c3[C@H](C[C@H]2N(C)C1)CN4C(=O)OCC(Cl)(Cl)Cl"
> 50 µg/mL
